Test system: Amaranthus retoflexus (AMARE)
Assay: Pre-emergence biological efficacy, glasshouse pot test
Assay type: in vivo
Settings: Amaranthus retroflexus, 312 h; pre-emergence, 1,000 g/ha, evaluated after 13 days (100=total damage; 0=no damage); read-out: Percentage damage AMARE
Recorded pest or weed control at 1000 g/ha for the following molecules
Give just the number in %; leave the unit off.

INSERT INTO results (molecule, measured_endpoint, measured_number) VALUES
  ('COC(=O)c1nc(C2CC2)nc(NCc2ccc(N)cc2)c1Cl', 'pest or weed control at 1000 g/ha', 100);

Please give the measured pest or weed control at 1000 g/ha for this molecule: O=C(O)c1nc(C2CC2)nc(NCc2c(Cl)cccc2Cl)c1Cl
0

What value of measured pest or weed control at 1000 g/ha is listed for O=C(O)c1nc(C2CC2)nc(NC2CCCCC2)c1Cl ?
50

Query (molecule): CCCC(F)(CNc1nc(C2CC2)nc(C(=O)OC)c1Cl)c1ccc(Cl)cc1Cl (stereo not drawn) ; field requested: pest or weed control at 1000 g/ha
30

Would you kindly share the measured pest or weed control at 1000 g/ha for COC(=O)c1nc(C2CC2)nc(NC2(COc3ccc(Cl)cc3)CC2)c1Cl ?
30

# lookup: pest or weed control at 1000 g/ha of COC(=O)c1nc(C2CC2)nc(NCc2ncccc2Cl)c1Cl
70
